Cited source: ChEMBL document CHEMBL1156212

- system_tested: 17-beta-hydroxysteroid dehydrogenase type 3 (Homo sapiens)
- Sequence (P37058 whole entry): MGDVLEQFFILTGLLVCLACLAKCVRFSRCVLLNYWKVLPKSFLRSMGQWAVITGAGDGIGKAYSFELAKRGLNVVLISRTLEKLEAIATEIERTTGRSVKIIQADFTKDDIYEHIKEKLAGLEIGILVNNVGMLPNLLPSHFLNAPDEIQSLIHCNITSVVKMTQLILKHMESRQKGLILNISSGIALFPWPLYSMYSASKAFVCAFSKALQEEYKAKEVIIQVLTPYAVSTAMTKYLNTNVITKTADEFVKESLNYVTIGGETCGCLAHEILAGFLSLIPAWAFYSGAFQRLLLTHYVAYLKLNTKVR
- method_description: Inhibition of 17beta-HSD3 in human testis microsomes
IC50: recorded values
Number only, in nM; omit the unit.

Example entries begin here.
Input line: Return IC50 for the following molecule: CN(C)c1ccc(/C=C/C(=O)/C=C/c2ccc(N(C)C)cc2)cc1
Output line: 2400

Input line: Return IC50 for the following molecule: COc1cc(/C=C/C(=O)CC(=O)/C=C/c2ccc(O)c(OC)c2)ccc1O [CURCUMIN]
Output line: 67300

Input line: Return IC50 for the following molecule: COc1cc(/C=C2\CCC/C(=C\c3cc(OC)c(OC)c(OC)c3)C2=O)cc(OC)c1OC
Output line: 100

Input line: Return IC50 for the following molecule: O=C1C=CC(=O)C(c2ccc(-c3ccccc3)cc2)=C1
Output line: 2700

# input for lookup
Input line: Return IC50 for the following molecule: O=C(/C=C/c1cccc(Br)c1)/C=C/c1cccc(Br)c1
Output line: 2700

* * *

pIC50: recorded values
- system_tested: 17-beta-hydroxysteroid dehydrogenase type 3 (Rattus norvegicus)
- Sequence (O54939 whole entry): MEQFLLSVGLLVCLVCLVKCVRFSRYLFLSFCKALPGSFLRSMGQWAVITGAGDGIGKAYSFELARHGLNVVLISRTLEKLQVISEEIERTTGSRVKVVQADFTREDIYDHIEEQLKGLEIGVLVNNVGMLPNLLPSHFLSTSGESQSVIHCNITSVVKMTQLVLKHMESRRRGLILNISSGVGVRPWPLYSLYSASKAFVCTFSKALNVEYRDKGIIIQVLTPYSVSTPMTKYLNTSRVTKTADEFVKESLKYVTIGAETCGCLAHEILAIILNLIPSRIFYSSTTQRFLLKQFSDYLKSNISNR
- method_description: Inhibition of 17beta-HSD3 in Sprague-Dawley rat testis microsomes
Give only the number. pIC50 is defined as minus log10 of concentration in molar units.

Example entries begin here.
Input line: Return pIC50 for the following molecule: COc1cc(/C=C/C(=O)CC(=O)/C=C/c2ccc(O)c(OC)c2)ccc1O [CURCUMIN]
Output line: 5.64

Input line: Return pIC50 for the following molecule: O=C1/C(=C/c2cccc(Br)c2)CC/C1=C\c1cccc(Br)c1
Output line: 6.15

Input line: Return pIC50 for the following molecule: O=C(/C=C/c1cccc(Br)c1)/C=C/c1cccc(Br)c1
Output line: 5.07

Next:
Input line: Return pIC50 for the following molecule: O=C(/C=C/c1ccc(F)cc1)/C=C/c1ccc(F)cc1
Output line: 5.48

Input line: Return pIC50 for the following molecule: COc1cc(/C=C2\CCC/C(=C\c3cc(OC)c(OC)c(OC)c3)C2=O)cc(OC)c1OC
Output line: 5.74

* * *

- system_tested: 17-beta-hydroxysteroid dehydrogenase type 3 (Rattus norvegicus) (UniProt O54939)
- Sequence (O54939 whole entry): as above
- method_description: Inhibition of 17beta-HSD3 in Sprague-Dawley rat testis microsomes at 100 uM
The source made the active and inactive calls. No cut-off for these calls is given here.
recorded_metric: inhibition

Example entries begin here.
Input line: Return inhibition for the following compound: COc1cc(/C=C2\CC/C(=C\c3ccc(OC4CCCOC4)c(OC)c3)C2=O)ccc1OC1CCCOC1 (configuration not stated)
Output line: inactive

Input line: Return inhibition for the following compound: COc1cc(/C=C/C(=O)/C=C/c2cc(OC)c(OC)c(OC)c2)cc(OC)c1OC
Output line: inactive

Input line: Return inhibition for the following compound: O=C1/C(=C/c2ccc(O)cc2)CCC/C1=C\c1ccc(O)cc1
Output line: 34%

Input line: Return inhibition for the following compound: O=C1/C(=C/c2ccc(F)cc2)CCC/C1=C\c1ccc(F)cc1
Output line: inactive

Input line: Return inhibition for the following compound: O=C(/C=C/c1ccc(OC2CCCOC2)cc1)/C=C/c1ccc(OC2CCCOC2)cc1 (configuration not stated)
Output line: 29%

Input line: Return inhibition for the following compound: O=C1/C(=C/c2ccc(OC3CCCOC3)cc2)CCC/C1=C\c1ccc(OC2CCCOC2)cc1 (configuration not stated)
Output line: 21%

Input line: Return inhibition for the following compound: CCOc1ccc(/C=C2\CC/C(=C\c3ccc(OCC)cc3)C2=O)cc1
Output line: inactive

Input line: Return inhibition for the following compound: O=C1/C(=C/c2ccc(OC3CCCOC3)cc2)CC/C1=C\c1ccc(OC2CCCOC2)cc1 (configuration not stated)
Output line: 13%

Input line: Return inhibition for the following compound: COc1cc(/C=C/C(=O)/C=C/c2ccc(OC3CCCOC3)c(OC)c2)ccc1OC1CCCOC1 (configuration not stated)
Output line: 35%

Input line: Return inhibition for the following compound: COc1cc(/C=C2\CCC/C(=C\c3ccc(OC4CCCOC4)c(OC)c3)C2=O)ccc1OC1CCCOC1 (configuration not stated)
Output line: 27%

Next:
Input line: Return inhibition for the following compound: CN(C)c1ccc(/C=C/C(=O)/C=C/c2ccc(N(C)C)cc2)cc1
Output line: 15%

Input line: Return inhibition for the following compound: CN(C)c1ccc(/C=C2\CC/C(=C\c3ccc(N(C)C)cc3)C2=O)cc1
Output line: inactive

Input line: Return inhibition for the following compound: CCOc1ccc(/C=C2\CCC/C(=C\c3ccc(OCC)cc3)C2=O)cc1
Output line: 16%

* * *

- system_tested: 17-beta-hydroxysteroid dehydrogenase type 3 (Homo sapiens, UniProt P37058)
- method_description: Inhibition of 17beta-HSD3
recorded_metric: pIC50
Give only the number. pIC50 is defined as minus log10 of concentration in molar units.

Input line: Return pIC50 for the following compound: C[C@]12CC[C@H](OCCc3ccccc3)CC1CC[C@@H]1[C@@H]2CC[C@]2(C)C(=O)CC[C@@H]12 (stereo partly specified)
Output line: 7.24

* * *

- system_tested: 17-beta-hydroxysteroid dehydrogenase type 3 (Rattus norvegicus) (UniProt O54939)
- method_description: Inhibition of 17beta-HSD3 in Sprague-Dawley rat laydig cells at 100 uM
Active and inactive are the calls of the source. The rule behind the calls is not given here.
recorded_metric: inhibition

Input line: State recorded inhibition with 17-beta-hydroxysteroid dehydrogenase type 3 (Rattus norvegicus) (UniProt O54939), entry O=C1/C(=C/c2ccc(F)cc2)CC/C1=C\c1ccc(F)cc1 , no comment.
Output line: 14%

Input line: State recorded inhibition with 17-beta-hydroxysteroid dehydrogenase type 3 (Rattus norvegicus) (UniProt O54939), entry O=C(/C=C/c1cccc(Br)c1)/C=C/c1cccc(Br)c1 , no comment.
Output line: 20%

Input line: State recorded inhibition with 17-beta-hydroxysteroid dehydrogenase type 3 (Rattus norvegicus) (UniProt O54939), entry CN(C)c1ccc(/C=C2\CCC/C(=C\c3ccc(N(C)C)cc3)C2=O)cc1 , no comment.
Output line: 12%

Input line: State recorded inhibition with 17-beta-hydroxysteroid dehydrogenase type 3 (Rattus norvegicus) (UniProt O54939), entry O=C1/C(=C/c2ccc(F)cc2)CCC/C1=C\c1ccc(F)cc1 , no comment.
Output line: inactive

Input line: State recorded inhibition with 17-beta-hydroxysteroid dehydrogenase type 3 (Rattus norvegicus) (UniProt O54939), entry CCOc1ccc(/C=C2\CCC/C(=C\c3ccc(OCC)cc3)C2=O)cc1 , no comment.
Output line: inactive

# input for lookup
Input line: State recorded inhibition with 17-beta-hydroxysteroid dehydrogenase type 3 (Rattus norvegicus) (UniProt O54939), entry CCOc1ccc(/C=C2\CC/C(=C\c3ccc(OCC)cc3)C2=O)cc1 , no comment.
Output line: 14%

* * *

- system_tested: 17-beta-hydroxysteroid dehydrogenase type 3 (Homo sapiens)
- method_description: Inhibition of 17beta-HSD3 in human testis microsomes at 100 uM
Activity calls are given as the source filed them. The rule behind the calls is not given here.
recorded_metric: inhibition

Input line: State recorded inhibition with 17-beta-hydroxysteroid dehydrogenase type 3 (Homo sapiens), entry O=C(/C=C/c1ccc(OC2CCCOC2)cc1)/C=C/c1ccc(OC2CCCOC2)cc1 (stereo not given) , no comment.
Output line: 22%

Input line: State recorded inhibition with 17-beta-hydroxysteroid dehydrogenase type 3 (Homo sapiens), entry O=C1/C(=C/c2cccc(Br)c2)CC/C1=C\c1cccc(Br)c1 , no comment.
Output line: 14%

Input line: State recorded inhibition with 17-beta-hydroxysteroid dehydrogenase type 3 (Homo sapiens), entry COc1cc(/C=C2\CC/C(=C\c3cc(OC)c(OC)c(OC)c3)C2=O)cc(OC)c1OC , no comment.
Output line: inactive

Input line: State recorded inhibition with 17-beta-hydroxysteroid dehydrogenase type 3 (Homo sapiens), entry O=C1/C(=C/c2cccc(C(F)(F)F)c2F)CC/C1=C\c1cccc(C(F)(F)F)c1F , no comment.
Output line: inactive

Input line: State recorded inhibition with 17-beta-hydroxysteroid dehydrogenase type 3 (Homo sapiens), entry COc1cc(/C=C2\CC/C(=C\c3ccc(OC4CCCOC4)c(OC)c3)C2=O)ccc1OC1CCCOC1 (stereo not given) , no comment.
Output line: inactive

Next:
Input line: State recorded inhibition with 17-beta-hydroxysteroid dehydrogenase type 3 (Homo sapiens), entry O=C1/C(=C/c2ccc(O)cc2)CCC/C1=C\c1ccc(O)cc1 , no comment.
Output line: 38%

Input line: State recorded inhibition with 17-beta-hydroxysteroid dehydrogenase type 3 (Homo sapiens), entry CCOc1ccc(/C=C2\CCC/C(=C\c3ccc(OCC)cc3)C2=O)cc1 , no comment.
Output line: 13%

Input line: State recorded inhibition with 17-beta-hydroxysteroid dehydrogenase type 3 (Homo sapiens), entry O=C(/C=C/c1ccc(O)cc1)/C=C/c1ccc(O)cc1 , no comment.
Output line: 46%

Input line: State recorded inhibition with 17-beta-hydroxysteroid dehydrogenase type 3 (Homo sapiens), entry CN(C)c1ccc(/C=C2\CCC/C(=C\c3ccc(N(C)C)cc3)C2=O)cc1 , no comment.
Output line: 17%

Input line: State recorded inhibition with 17-beta-hydroxysteroid dehydrogenase type 3 (Homo sapiens), entry O=C1/C(=C/c2ccc(O)cc2)CC/C1=C\c1ccc(O)cc1 , no comment.
Output line: 28%
